Measured values drawn from ChEMBL document CHEMBL1201862 for this set.

Tested on: U-251
Assay: NCI tumour cell line growth inhibition, 48 h
The source made the active and inactive calls. No stated cut-off is given here; in the data, active = GI50 up to about 1.1 µM and inactive = higher.
Thanks in advance; please answer with one of these: active, inactive

A selection of reference data follows.
{"molecule": "FC(F)(F)C1(Br)C(c2ccccc2)=C1c1ccccc1", "tested on": "U-251", "classification": "inactive"}
{"molecule": "CSC(=O)C[C@@]12O[C@@H]([C@@H](C)C3CCC4[C@@H]5C(O)CC6=CC(=O)C=C[C@]6(C)C5CC[C@@]43C)C[C@](C)(O1)C(C)(C)O2 (stereo partly specified)", "tested on": "U-251", "classification": "inactive"}
{"molecule": "COC(=O)C1=NN2c3ccccc3C(=O)OCCC2C1 (stereo unspecified)", "tested on": "U-251", "classification": "inactive"}
{"molecule": "NCCCCNCCCNC(=O)c1nc(-c2csc(CCN)n2)sc1Cl", "tested on": "U-251", "classification": "inactive"}
{"molecule": "CCSc1nnc(-c2ccccc2)nc1Cc1ccc(OC)cc1", "tested on": "U-251", "classification": "inactive"}

Check the results log: what was the call for O=[N+]([O-])c1nccn1COCCF ? inactive

Check the results log: what was the call for O=C1c2ccccc2C(=O)c2nc3c(O)cccc3cc21 ? inactive

* * *

System: COLO 205
Experiment: NCI tumour cell line growth inhibition, 48 h
The source made the active and inactive calls. Rule as the data show it: active = GI50 up to about 1.1 µM and inactive = higher.
Entries and their measured GI50 follow.

Please review the following examples before continuing.
{"molecule": "CN(C)C(=S)/N=c1\\ss/c(=N\\C(=S)N(C)C)n1-c1ccc(Cl)cc1", "observed measurement": "> 100 µM (inactive)"}
{"molecule": "COC(=O)C1=NN2c3ccccc3C(=O)OCCC2C1 (stereo unspecified)", "observed measurement": "> 100 µM (inactive)"}
{"molecule": "CN(C)CC1CC/C(=C\\c2ccc(Cl)cc2)C1=O (stereo unspecified)", "observed measurement": "4.19 µM (inactive)"}

What does the record list as GI50 for O=C(O)[C@H](NS(=O)(=O)c1ccc2ccccc2c1)c1ccccc1 ? > 100 µM (inactive)

What does the record list as GI50 for O=C1c2ccccc2C2(c3ccc(Cl)cc3)NCc3ccccc3CN12 (stereo unspecified) ? 15.1 µM (inactive)

What does the record list as GI50 for COC(=O)[C@@H]1CCc2nc3ccccc3c(=O)n21 ? > 100 µM (inactive)

* * *

Entries and their measured GI50 follow.
System: SF-539
Experiment: NCI tumour cell line growth inhibition, 48 h
The source made the active and inactive calls. Rule as the data show it: active = GI50 up to about 1.1 µM and inactive = higher.

{"compound": "O=C1OC(c2ccccc2)=N/C1=C/NC(Cc1c[nH]c2ccccc12)C(=O)O (centres undefined)", "GI50": "> 100 µM (inactive)"}
{"compound": "CC(C)(C)OC(=O)C1=C(O)C(C(=O)OC(C)(C)C)C23CCCCC12C(C(=O)OC(C)(C)C)C(O)=C3C(=O)OC(C)(C)C (centres undefined)", "GI50": "> 100 µM (inactive)"}
{"compound": "O=C1CCC[C@H]2O[C@@H](COC(=O)c3ccccc3)C[C@H]2O1", "GI50": "> 100 µM (inactive)"}
{"compound": "O=C1C(=C/C=C2/SC(c3ccccc3)(c3ccccc3)c3ccccc32)C(=O)c2ccccc21", "GI50": "> 100 µM (inactive)"}
{"compound": "CO/N=C1/C(n2[nH]c(=O)n(-c3ccccc3)c2=O)C2C=CC1n1c(=O)n(-c3ccccc3)c(=O)n12 (centres undefined)", "GI50": "> 100 µM (inactive)"}

What does the record list as GI50 for COC(=O)c1cc(/C=C/C(=O)Cc2ccccc2)cn1S(=O)(=O)c1ccccc1 ? > 100 µM (inactive)

What does the record list as GI50 for N#CC1C(=S)NC(c2ccccc2)=CC12CCCCC2 (centres undefined) ? 43 µM (inactive)

What does the record list as GI50 for CN(C)CCCNC(=O)c1c(O)c2ccccc2n(C)c1=O ? 78.3 µM (inactive)

What does the record list as GI50 for FC(F)(F)C1(Br)C(c2ccccc2)=C1c1ccccc1 ? 17.9 µM (inactive)

What does the record list as GI50 for O=C1c2cc([N+](=O)[O-])cc3cc([N+](=O)[O-])cc(c23)C(=O)N1CCCNCCNCCCN1C(=O)c2cc([N+](=O)[O-])cc3cc([N+](=O)[O-])cc(c23)C1=O ? 0.0533 µM (active)

What does the record list as GI50 for Cn1c(=N)n[n+]([O-])c2ccccc21 ? 1.5 µM (inactive)

What does the record list as GI50 for COc1cc([C@@H]2c3cc4c(cc3[C@@H](Nc3ccc(C(=O)N[C@H]5CCc6cc(OC)c(OC)c(OC)c6-c6ccc(SC)c(=O)cc65)cc3)[C@H]3COC(=O)[C@H]23)OCO4)cc(OC)c1O ? < 0.01 µM (active)

What does the record list as GI50 for Cc1ccc([S+]([O-])c2sccc2C=O)cc1 (centres undefined) ? 21 µM (inactive)

What does the record list as GI50 for CC1CC(=O)N2CCCNC2=C1C#N (centres undefined) ? > 100 µM (inactive)

What does the record list as GI50 for COc1ccc(/C=C2/CSCC3=C2N=C(S)NC3c2ccc(OC)c(OC)c2OC)c(OC)c1OC (centres undefined) ? 16.8 µM (inactive)

What does the record list as GI50 for O=[N+]([O-])c1cccc2nccc(NCCN3CCOCC3)c12 ? 20.3 µM (inactive)

What does the record list as GI50 for COC(=O)C1=Cc2cc(OC)c(OC)c(OC)c2[C@H](c2cc(OC)c(OC)c(OC)c2)C1C(=O)OC (some centres undefined) ? > 100 µM (inactive)

What does the record list as GI50 for O=C(CSCC(=O)N/N=C/c1ccncc1)N/N=C/c1ccncc1 ? > 100 µM (inactive)

What does the record list as GI50 for CCOC(=O)N(C)C1(c2ccccc2)CCN(CCCC(=O)c2ccc(F)cc2)CC1 ? 28.6 µM (inactive)

* * *

Test system: RPMI-8226
Test: NCI tumour cell line growth inhibition, 48 h
Activity calls are given as the source filed them. Cut-off read from the data, not from the text of the source: active = GI50 up to about 1.1 µM and inactive = higher.
Entries and their measured GI50 follow.

{"compound": "CC1=CC(=O)C(C)(C2=NC(C)(C)CO2)c2ccccc21 (stereo not given)", "GI50": "> 100 µM (inactive)"}
{"compound": "CC(=O)NNc1nc(C)c(C(/C=C/c2ccc([N+](=O)[O-])cc2)=N/NC(N)=O)s1", "GI50": "> 100 µM (inactive)"}
{"compound": "N=C(N)NS(=O)(=O)c1ccc(NC(=O)c2ccc3nc4ccccc4c(Nc4ccc(S(N)(=O)=O)cc4)c3c2)cc1", "GI50": "> 100 µM (inactive)"}
{"compound": "CCC1CN2CCc3cc(OC)c(OC)cc3C2CC1CC1c2cc(OC)c(OC)cc2CCN1C(=O)C(Cc1c[nH]c2ccccc12)NC(=O)OC(C)(C)C (stereo not given)", "GI50": "2.52 µM (inactive)"}
{"compound": "CC(/C=C/NNC1=NN=C(c2ccccc2)C(c2ccccc2)N1)Sc1ccccc1N (stereo not given)", "GI50": "3.64 µM (inactive)"}

What does the record list as GI50 for C=CCn1c2c(sc1=S)C(S)NC=N2 (stereo not given) ? 38.5 µM (inactive)

What does the record list as GI50 for O=c1ccc(=O)c2c(=O)c3ccccc3c(=O)c1=2 ? 27.5 µM (inactive)

What does the record list as GI50 for Cc1ccc(S(=O)(=O)NC(CO)C(=O)O)cc1 (stereo not given) ? > 100 µM (inactive)

What does the record list as GI50 for N#Cc1c(C#N)c(-c2ccccc2)n(Cc2ccccc2)c1N ? > 100 µM (inactive)

What does the record list as GI50 for N=C(N)SCc1ccc2c(c1)Sc1ccccc1O2 ? 8.05 µM (inactive)

* * *

Entries and their measured GI50 follow.
Tested on: NCI/ADR-RES
Assay: NCI tumour cell line growth inhibition, 48 h
Activity calls are given as the source filed them. No stated cut-off is given here; in the data, active = GI50 up to about 1.1 µM and inactive = higher.

Please review the following examples before continuing.
{"compound": "O=S(=O)(c1ccccc1)C1(CCC2OCCO2)C=CC2(CC1)OCCO2 (stereo not given)", "tested on": "NCI/ADR-RES", "observed measurement": "> 100 µM (inactive)"}
{"compound": "COC(=O)Cc1c(-c2[nH]c3ccccc3c2CC(=O)OC)[nH]c2ccccc12", "tested on": "NCI/ADR-RES", "observed measurement": "> 57.3 µM (inactive)"}
{"compound": "COc1cc(S(=O)(=O)Nc2ccc(-c3csc(/N=C\\C=C\\c4ccccc4)n3)cc2)ccc1Cl", "tested on": "NCI/ADR-RES", "observed measurement": "59 µM (inactive)"}
{"compound": "C/C(=C/CC[C@]1(CO)CC[C@]2(CO)[C@H](CC[C@@H]3[C@@]4(C)CC[C@H](OC5OCC(O)C(O)C5OC5OC(CO)C(O)C(O)C5O)C(C)(C)[C@@H]4CC[C@]32C)[C@H]1O)CO (stereo not given in full)", "tested on": "NCI/ADR-RES", "observed measurement": "> 100 µM (inactive)"}

// switching to the query compound
Give GI50 (NCI/ADR-RES) of the following compound: C=C(C[C@@H](O)[C@H](C)NC(=O)OCc1ccccc1)C(=O)OC(C)(C)C 66.2 µM (inactive)
